Values from the supplement of paper PMC10567573

Property: protein stability index; scope: individual variants
B1: HESX1 (parent)
chain: HVPNPPSGISFPSVVDHPMPEERA

# Variants of: B1
# Protocol Details: protein stability index of a GFP-peptide fusion (GPS, HEK-293T) (PSI 1-6); higher = more stable;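 also: lentivirally expressed fusions sorted by FACS into six bins by GFP to DsRed ratio, PSI derived from sequencing read proportions per bin multiplied by bin number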
# Measurement Context: c terminus: a fixed tail appended
# output: bare number, no unit

Look over these answered cases.
E21K 1.89
F11Q 4.83

Consider the record given below.
Ask: Param item = S7Q ; retrieve measured protein stability index.
Reply: 2.84
